- subject-of-test: Inosine-5'-monophosphate dehydrogenase (Pseudomonas aeruginosa (strain ATCC 15692 / DSM 22644 / CIP 104116 / JCM14847 / LMG 12228 / 1C / PRS 101 / PAO1))
- run-description: Inhibition of Pseudomonas aeruginosa IMPDH extracted form Escherichia coli BL21 (DE3)pDIA17 assessed as formation of NADH at 50 uM relative to control
# reported inhibition; entries follow
Express the result in % but write the number alone.

Sample answers from the record:
"CC(C)(NC(=O)NCc1ccccc1)c1cccc(-c2ccccc2)c1" has a reported inhibition of 16

"CC(C)(NC(=O)Nc1ccc(Cl)c([N+](=O)[O-])c1)c1cccc(-c2cn[nH]c2)c1" has a reported inhibition of 97

"CCOc1ncccc1-c1cccc(C(C)(C)NC(=O)Nc2ccc(Cl)c([N+](=O)[O-])c2)c1" has a reported inhibition of 95

"CCOC(=O)n1cc(-c2cccc(C(C)(C)NC(=O)Nc3ccc(Cl)c([N+](=O)[O-])c3)c2)cn1" has a reported inhibition of 87

"CC(C)(NC(=O)Nc1ccc(Cl)c([N+](=O)[O-])c1)c1cccc(-c2ccco2)c1" has a reported inhibition of 99

"CC(C)(NC(=O)Nc1ccc(Cl)c([N+](=O)[O-])c1)c1cccc(-c2cccnc2F)c1" has a reported inhibition of 98

"CC(C)(NC(=O)NCc1ccccc1)c1cccc(-c2ccco2)c1" has a reported inhibition of 10

"CC(C)(NC(=O)Nc1ccc(Cl)c([N+](=O)[O-])c1)c1cccc(-c2cn(C(c3ccccc3)(c3ccccc3)c3ccccc3)cn2)c1" has a reported inhibition of 35

Proceeding to the next compound to report its inhibition.
"CC(C)(NC(=O)Nc1ccc(Cl)c([N+](=O)[O-])c1)c1cccc(-c2cc[nH]n2)c1" has a reported inhibition of 99

###

# reported inhibition; entries follow
- System: Escherichia coli
- run-description: Inhibition of Escherichia coli IMPDH delta Bateman domain extracted form Escherichia coli BL21 (DE3)pDIA17 assessed as formation of NADH at 50 uM relative to control
Express the result in % but write the number alone.

Sample answers from the record:
"CC(C)(NC(=O)NCc1ccccc1)c1cccc(-c2ccco2)c1" has a reported inhibition of 1

"CC(C)(NC(=O)Nc1ccc(Cl)c([N+](=O)[O-])c1)c1cccc(-c2cn[nH]c2)c1" has a reported inhibition of 84

"CC(C)(NC(=O)Nc1ccc(Cl)c([N+](=O)[O-])c1)c1cccc(-c2cc[nH]n2)c1" has a reported inhibition of 88

Proceeding to the next molecule to report its inhibition.
"CC(C)(NC(=O)Nc1ccc(Cl)c([N+](=O)[O-])c1)c1cccc(-c2c[nH]cn2)c1" has a reported inhibition of 90

###

- run-description: Inhibition of Pseudomonas aeruginosa IMPDH delta Bateman domain extracted form Escherichia coli BL21 (DE3)pDIA17 assessed as formation of NADH
- reported-conditions: read-out: I50
readout-label: IC50 (µM)
Express the result in µM but write the number alone.

Sample answers from the record:
"CC(C)(NC(=O)Nc1ccc(Cl)c([N+](=O)[O-])c1)c1cccc(-c2c[nH]cn2)c1" has a reported IC50 of 0.15

"CC(C)(NC(=O)Nc1ccc(Cl)c([N+](=O)[O-])c1)c1cccc(-c2cc[nH]n2)c1" has a reported IC50 of 0.16

Proceeding to the next compound to report its IC50.
"CC(C)(NC(=O)Nc1ccc(Cl)c([N+](=O)[O-])c1)c1cccc(-c2cn[nH]c2)c1" has a reported IC50 of 0.17
